# Tested on: SK-LU-1
# assayText: Antiproliferative activity against human SK-LU-1 cells harboring KRAS G12D mutant assessed as inhibition of cell growth incubated for 72 hrs by MTT assay
# Assay type: functional, cell-based
# experimentalContext: SK-LU-1, 72 h
measureName: IC50 (nM)
Field format: number, assumed nM, no unit text.

Problem: If you can, please state the reported IC50 value of COc1cc2ncnc(N[C@H](C)c3cccc(F)c3)c2cc1OC1CCOCC1 .
Solution: 550

###

# Test system: Calu-1
# assayText: Antiproliferative activity against human Calu-1 cells harboring KRAS G12C mutant assessed as inhibition of cell growth incubated for 72 hrs by MTT assay
# Type: functional, cell-based
# experimentalContext: Calu-1, 72 h
measureName: pIC50
In simple prose, pIC50 is minus the logarithm base ten of a concentration in moles per litre.

Problem: Can you look up pIC50 on Calu-1 for COc1cc2ncnc(N[C@H](C)c3cccc(F)c3)c2cc1OC1CCOCC1 ?
Solution: 6.26

###

# experimentalSystem: Epidermal growth factor receptor (Homo sapiens, UniProt P00533)
# Sequence (P00533 whole entry): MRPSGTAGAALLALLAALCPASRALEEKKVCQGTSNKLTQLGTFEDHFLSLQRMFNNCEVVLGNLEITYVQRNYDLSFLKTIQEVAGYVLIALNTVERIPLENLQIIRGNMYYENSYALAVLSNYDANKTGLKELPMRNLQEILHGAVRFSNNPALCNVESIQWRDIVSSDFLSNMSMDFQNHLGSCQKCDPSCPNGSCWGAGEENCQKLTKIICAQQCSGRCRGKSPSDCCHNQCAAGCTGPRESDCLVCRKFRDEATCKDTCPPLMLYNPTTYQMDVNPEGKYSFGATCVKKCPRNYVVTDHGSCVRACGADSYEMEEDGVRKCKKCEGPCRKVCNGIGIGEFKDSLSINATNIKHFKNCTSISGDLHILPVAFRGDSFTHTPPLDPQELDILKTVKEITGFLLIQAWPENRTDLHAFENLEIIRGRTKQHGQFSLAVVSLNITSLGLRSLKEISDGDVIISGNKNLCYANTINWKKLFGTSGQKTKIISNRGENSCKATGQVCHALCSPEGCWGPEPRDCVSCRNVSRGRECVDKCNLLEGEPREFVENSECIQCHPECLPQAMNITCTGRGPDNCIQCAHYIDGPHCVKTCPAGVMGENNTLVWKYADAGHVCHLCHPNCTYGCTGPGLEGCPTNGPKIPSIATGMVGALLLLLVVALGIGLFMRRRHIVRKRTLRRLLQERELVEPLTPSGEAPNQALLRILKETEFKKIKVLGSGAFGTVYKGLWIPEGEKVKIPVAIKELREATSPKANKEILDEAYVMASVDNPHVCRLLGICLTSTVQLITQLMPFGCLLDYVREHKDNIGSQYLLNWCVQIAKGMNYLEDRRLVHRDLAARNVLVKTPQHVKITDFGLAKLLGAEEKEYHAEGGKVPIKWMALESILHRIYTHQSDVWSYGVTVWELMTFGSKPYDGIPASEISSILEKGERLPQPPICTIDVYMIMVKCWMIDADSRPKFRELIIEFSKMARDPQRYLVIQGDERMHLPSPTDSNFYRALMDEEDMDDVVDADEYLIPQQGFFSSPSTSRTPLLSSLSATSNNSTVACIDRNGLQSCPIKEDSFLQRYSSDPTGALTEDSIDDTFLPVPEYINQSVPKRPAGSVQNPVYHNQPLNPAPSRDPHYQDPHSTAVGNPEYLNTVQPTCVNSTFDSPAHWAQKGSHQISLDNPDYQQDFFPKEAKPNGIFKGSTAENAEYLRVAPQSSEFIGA
measureName: pIC50
In simple prose, pIC50 is minus the logarithm base ten of a concentration in moles per litre.

Problem: Can you look up pIC50 on Epidermal growth factor receptor (Homo sapiens, UniProt P00533) for COc1cc2ncnc(N[C@H](C)c3cccc(F)c3)c2cc1OC1CCOCC1 ?
Solution: 9.00

###

# experimentalSystem: Epidermal growth factor receptor (Homo sapiens)
# assayText: Inhibition of EGFR (unknown origin) using ultra ULight GT peptide as substrate at 10 uM incubated for 2 hrs relative to control
Rule: inhibition of 70% or more gives criterion met; anything lower gives criterion not met.

These solved cases illustrate the format of a correct answer.
Cc1cccc(Nc2ncnc3c2cnn3C)c1 = criterion met
COc1cc2ncnc(NCc3ccccc3C(F)(F)F)c2cc1OC = criterion met

Problem: Item COc1cc2ncnc(NCc3cccc(Cl)c3)c2cc1OC with inhibition of 70% or above?
Solution: criterion met

Problem: Next: Clc1ccc(CNc2ncnc3ccccc23)cc1
Solution: criterion met

Problem: Next: Cc1sc2ncnc(Nc3ccc(F)cc3)c2c1C
Solution: criterion not met

###

# experimentalSystem: Son of sevenless homolog 1 (Homo sapiens) (UniProt Q07889)
# Sequence (Q07889 whole entry): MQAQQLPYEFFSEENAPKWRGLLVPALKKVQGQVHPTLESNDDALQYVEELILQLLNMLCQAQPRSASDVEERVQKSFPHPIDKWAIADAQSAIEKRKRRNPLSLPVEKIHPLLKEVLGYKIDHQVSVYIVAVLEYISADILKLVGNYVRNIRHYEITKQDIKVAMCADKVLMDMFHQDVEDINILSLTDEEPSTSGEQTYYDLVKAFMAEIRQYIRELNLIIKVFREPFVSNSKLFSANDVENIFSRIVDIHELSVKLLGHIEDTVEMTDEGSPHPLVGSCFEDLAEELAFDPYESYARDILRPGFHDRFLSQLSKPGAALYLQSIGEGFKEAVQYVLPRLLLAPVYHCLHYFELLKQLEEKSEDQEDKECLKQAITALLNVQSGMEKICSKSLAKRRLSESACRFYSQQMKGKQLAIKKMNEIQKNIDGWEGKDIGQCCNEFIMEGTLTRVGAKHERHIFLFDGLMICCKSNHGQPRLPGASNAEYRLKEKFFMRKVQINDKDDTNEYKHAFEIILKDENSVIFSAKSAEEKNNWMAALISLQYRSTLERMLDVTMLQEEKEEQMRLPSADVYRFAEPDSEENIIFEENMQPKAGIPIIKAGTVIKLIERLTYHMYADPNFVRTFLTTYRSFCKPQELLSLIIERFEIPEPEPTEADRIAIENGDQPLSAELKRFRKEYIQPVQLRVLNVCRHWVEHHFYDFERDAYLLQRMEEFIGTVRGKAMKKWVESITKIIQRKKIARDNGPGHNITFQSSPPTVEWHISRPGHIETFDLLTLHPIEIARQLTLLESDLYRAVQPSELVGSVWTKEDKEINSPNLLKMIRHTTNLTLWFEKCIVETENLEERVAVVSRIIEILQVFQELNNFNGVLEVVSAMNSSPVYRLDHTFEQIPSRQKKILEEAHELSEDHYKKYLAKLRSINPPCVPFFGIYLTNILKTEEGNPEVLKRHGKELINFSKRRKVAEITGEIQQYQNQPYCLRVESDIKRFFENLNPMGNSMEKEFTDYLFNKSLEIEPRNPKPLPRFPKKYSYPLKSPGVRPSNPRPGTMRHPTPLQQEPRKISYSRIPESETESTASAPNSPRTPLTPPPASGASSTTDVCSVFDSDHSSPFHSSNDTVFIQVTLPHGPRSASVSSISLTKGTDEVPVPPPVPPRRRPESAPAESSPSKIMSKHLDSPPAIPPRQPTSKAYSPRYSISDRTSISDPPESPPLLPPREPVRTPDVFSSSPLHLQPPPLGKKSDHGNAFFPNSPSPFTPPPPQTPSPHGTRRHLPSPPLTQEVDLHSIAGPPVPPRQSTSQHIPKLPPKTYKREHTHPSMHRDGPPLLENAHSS
# assayText: Inhibition of human recombinant SOS1 at 10 uM relative to control
The source made the active and inactive calls. The rule behind the calls is not given here.
measureName: inhibition

Worked set:
c1ccc(Nc2ncnc3sc4c(c23)CCC4)cc1 = inactive
Cc1sc2ncnc(Nc3ccc(F)cc3)c2c1C = inactive
Cc1cccc(Nc2ncnc3c2cnn3C)c1 = inactive
CCc1cc2c(Nc3ccc(OC)cc3)ncnc2s1 = inactive

// moving on: another record for inhibition
Problem: If you can, please state the reported inhibition value of COc1cc2ncnc(N[C@H](C)c3cccc(F)c3)c2cc1OC1CCOCC1 .
Solution: 97%

# credit: ChEMBL document CHEMBL5543153
